molecular target: Recombinant JAK1 (Homo sapiens, UniProt P23458); construct: purchased Carna Biosciences; experiment: JAK biochemical assay (LANCE Ultra TR-FRET), JAK1; conditions: recombinant JAK1, TR-FRET; read-out: Biochemical Assay (μM) JAK1
Sequence (P23458 whole entry): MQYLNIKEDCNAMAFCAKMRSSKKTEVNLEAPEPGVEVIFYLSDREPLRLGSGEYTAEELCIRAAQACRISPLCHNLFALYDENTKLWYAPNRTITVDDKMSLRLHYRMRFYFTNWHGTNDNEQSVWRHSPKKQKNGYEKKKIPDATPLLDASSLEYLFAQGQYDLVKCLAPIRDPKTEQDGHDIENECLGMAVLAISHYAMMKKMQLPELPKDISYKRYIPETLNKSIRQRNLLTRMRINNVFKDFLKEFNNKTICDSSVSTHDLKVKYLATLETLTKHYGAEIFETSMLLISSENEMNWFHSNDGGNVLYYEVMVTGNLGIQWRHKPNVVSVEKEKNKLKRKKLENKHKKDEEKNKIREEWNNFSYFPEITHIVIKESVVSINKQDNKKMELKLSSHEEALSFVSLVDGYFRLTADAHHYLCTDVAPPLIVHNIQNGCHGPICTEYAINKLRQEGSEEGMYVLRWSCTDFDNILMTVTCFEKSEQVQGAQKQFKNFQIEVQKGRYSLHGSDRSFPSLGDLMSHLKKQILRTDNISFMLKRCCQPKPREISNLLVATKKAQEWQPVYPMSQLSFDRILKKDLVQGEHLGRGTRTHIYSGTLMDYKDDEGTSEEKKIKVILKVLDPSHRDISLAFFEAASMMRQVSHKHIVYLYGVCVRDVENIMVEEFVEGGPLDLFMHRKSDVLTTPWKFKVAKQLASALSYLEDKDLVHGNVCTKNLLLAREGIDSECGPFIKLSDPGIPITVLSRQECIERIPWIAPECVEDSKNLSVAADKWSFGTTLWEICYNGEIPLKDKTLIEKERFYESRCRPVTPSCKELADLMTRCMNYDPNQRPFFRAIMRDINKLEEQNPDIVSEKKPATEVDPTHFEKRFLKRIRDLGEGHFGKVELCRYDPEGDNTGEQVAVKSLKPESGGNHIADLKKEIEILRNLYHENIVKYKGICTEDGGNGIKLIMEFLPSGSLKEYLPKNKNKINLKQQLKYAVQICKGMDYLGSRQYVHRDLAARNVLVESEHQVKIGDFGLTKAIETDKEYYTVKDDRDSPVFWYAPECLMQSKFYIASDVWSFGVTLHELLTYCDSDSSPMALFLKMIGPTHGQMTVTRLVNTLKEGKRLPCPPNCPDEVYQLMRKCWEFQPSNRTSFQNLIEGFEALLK
property: IC50

[
  {
    "compound": "N#CCC1CCN(C(=O)n2cc(-c3ccnc4[nH]c(=O)[nH]c34)cn2)C1 (centres unmarked) [Example 1057]",
    "assay result": "> 0.5 µM"
  },
  {
    "compound": "N#CCc1ccnc(-n2cc(-c3ccnc4[nH]cnc34)cn2)c1 [Example 1118]",
    "assay result": "> 0.5 µM"
  },
  {
    "compound": "CS(=O)(=O)CCC(c1ccc(-n2cc(-c3ccnc4[nH]cnc34)cn2)nc1)C1COC1 (centres unmarked) [Example 1160]",
    "assay result": "> 0.1 µM"
  }
]

QUERY: Could you please provide reported IC50 for OC(c1ccc(-n2cc(-c3ccnc4[nH]cnc34)cn2)cn1)C(F)(F)F (centres unmarked) [Example 1173] ? Thanks!
RESULT: < 0.1 µM

QUERY: Could you please provide reported IC50 for Cn1c(=O)[nH]c2nccc(-c3cnn(C(=O)NCC(F)(F)F)c3)c21 [Example 1029] ? Thanks!
RESULT: > 10 µM

QUERY: Could you please provide reported IC50 for CS(=O)(=O)NCCC(c1ccc(-n2cc(-c3ccnc4[nH]cnc34)cn2)nc1)C(F)(F)F (centres unmarked) [Example 1143] ? Thanks!
RESULT: < 0.1 µM

QUERY: Could you please provide reported IC50 for COC(c1ccc(-n2cc(-c3ccnc4[nH]cnc34)cn2)nc1)(C1CC1)C(F)(F)F (centres unmarked) [Example 1127] ? Thanks!
RESULT: > 0.5 µM

QUERY: Could you please provide reported IC50 for O=C(NCCC(c1ccc(-n2cc(-c3ccnc4[nH]cnc34)cn2)nc1)C(F)(F)F)C1CC1 (centres unmarked) [Example 1149] ? Thanks!
RESULT: < 0.1 µM
